ASSAYED TARGET: T1, CRIPT (Drosophila melanogaster)
T1 chain: YRQSST
PROTOCOL NOTES: ITC
MEASURED PROPERTY: pKd
Note on pKd: it is the negative log10 of concentration, concentration in mol/L.

Complete the entry with pKd for DLG PDZ3 PDZ3 (protein) EPRTITIQKGPQGLGFNIVGGEDGQGIYVSFILAGGPADLGSELKRGDQLLSVNNVNLTHATHEEAAQALKTSGGVVTLLAQYRPEEY
4.57
